target: PD-1/PD-L1 (Homo sapiens); construct: made in house; host or cells: HEK293T; assay: PD-1/PD-L1 Homogenous Time-Resolved Fluorescence (HTRF) binding assay; conditions: PD-L1-His 10 nM, PD-1-Ig 20 nM; value given as range class; read-out: Range or IC50
attribute.measured: IC50

A selection of reference data follows.
>>> print(df.to_string())
                                smiles_text            target_of_assay  attribute_measured         result
0  Cc1c(COc2cc(OCc3cncc(C#N)c3)c(CNC(C)(CO)CO)cc2Cl)cccc1-c1cccc(OCC(CO)CO)c1Cl  PD-1/PD-L1 (Homo sapiens)                IC50  0.21 to 10 nM
1  Cc1c(COc2cc(OCc3cc(Cl)cc(Cl)c3)c(CNC(CO)(CO)CO)cc2Cl)cccc1-c1cccc(OCCCN2CC[C@@H](O)C2)c1C  PD-1/PD-L1 (Homo sapiens)                IC50  0.21 to 10 nM

Prompt line: Quick one: IC50 of "Cc1c(COc2cc(OCc3cncc(C#N)c3)c(CN(C)C[C@H](O)CO)cc2Cl)cccc1-c1cccc(OCCCN(C)C[C@H](O)CO)c1C" ?
Response line: 0.21 to 10 nM

====

Biological target: PD-1/PD-L1 (Homo sapiens, UniProt Q9NZQ7)
Construct: made in house; host or cells: HEK293T
Sequence (Q9NZQ7 with tags, fused parts or gaps): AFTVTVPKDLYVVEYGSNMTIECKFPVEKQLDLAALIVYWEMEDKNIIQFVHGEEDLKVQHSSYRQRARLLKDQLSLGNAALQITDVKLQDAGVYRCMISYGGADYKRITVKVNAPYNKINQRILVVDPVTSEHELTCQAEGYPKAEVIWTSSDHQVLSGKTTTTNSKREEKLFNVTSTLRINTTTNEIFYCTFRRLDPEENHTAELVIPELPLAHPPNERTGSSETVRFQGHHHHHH
Experiment: PD-1/PD-L1 Homogenous Time-Resolved Fluorescence (HTRF) binding assay
Details: PD-L1-His 10 nM, PD-1-Ig 20 nM; value given as range class; read-out: Range or IC50
Protocol: The ability of the compounds of formula (I) to bind to PD-L1 was investigated using a PD-1/PD-L1 Homogenous Time-Resolved Fluorescence (HTRF) binding assay. Homogenous Time-Resolved Fluorescence (HTRF) Binding Assay. All binding studies were performed in an HTRF assay buffer consisting of dPBS supplemented with 0.1% […] bovine serum albumin and 0.05% (v/v) Tween-20. […]
Would you mind telling me the reported IC50 of each entry?

Answered cases to consult:
In [3]: df
Out[3]:
                                   molecule  attribute_measured         result
0  Cc1c(COc2cc(OCc3cncc(C#N)c3)c(CN[C@@H](CO)C(=O)O)cc2Cl)cccc1-c1cccc(OCCCN2CCC(O)C2)c1C (stereo in doubt) [Example 3004]                IC50  0.21 to 10 nM
1  Cc1cc(COc2cc(OCc3cncc(C#N)c3)c(CN[C@](C)(CO)C(=O)O)cc2Cl)c(C)c(-c2cccc(OCCCN3CC[C@@H](O)C3)c2C)c1 [Example 3026]                IC50  0.21 to 10 nM
2  Cc1ccccc1-c1cccc(COc2cc(OCc3cncc(C#N)c3)c(CN[C@@](C)(CO)C(=O)O)cc2Cl)c1C [Example 3020]                IC50  0.21 to 10 nM

Look up IC50 for the entries below, preserving their order.
1. Cc1c(COc2cc(OCc3cncc(C#N)c3)c(C=O)cc2Cl)cccc1-c1ccc2c(c1)OC(CCN1CC[C@H](O)C1)CO2 (mixture of isomers) [Example 1502]
2. Cc1c(COc2cc(OCc3cncc(C#N)c3)c(CN[C@@](C)(CO)C(=O)O)cc2Cl)cccc1-c1cccc(OCCCNC[C@H](O)CO)c1Cl [Example 2006]
3. Cc1c(COc2cc(OCc3cncc(C#N)c3)c(CNCC(=O)O)cc2Cl)cccc1-c1cccc(OCCCN2CC[C@@H](O)C2)c1C [Example 4147]

Response line:
1. 10 to 100 nM
2. 0.21 to 10 nM
3. 0.21 to 10 nM

The reported measurements were obtained from patent US10745382B2.
